- Read-out: Vascular cell adhesion molecule 1 (VCAM1), VCAM1 (gene 7412)
- EXPERIMENT: BSK_LPS_VCAM1: BioMAP Diversity Plus: LPS Assay for Vascular cell adhesion molecule 1 (VCAM1) Biomarker Activity (AID 2283086)
- APPLIED_CONDITIONS: primary human HUVEC with PBMC; actives raise or lower the signal
The source made the active and inactive calls. How the source made its calls: active means hit-call score of the fitted dose curve at least 0.9, where 1 is the maximum; inactive means score below 0.9.
Outcomes you can answer with include only these: active, inactive

- STRUCTURE_AS_SMILES: "CCCOC(=O)c1cc(O)c(O)c(O)c1"
  QUALITATIVE_LABEL: "inactive"
- STRUCTURE_AS_SMILES: "COc1cccc([C@H](O)C2CCN(CCc3ccc(F)cc3)CC2)c1OC"
  QUALITATIVE_LABEL: "inactive"
- STRUCTURE_AS_SMILES: "CO[C@H]1/C=C/O[C@@]2(C)Oc3c(C)c(O)c4c(O)c(c(/C=N/N5CCN(C)CC5)c(O)c4c3C2=O)NC(=O)/C(C)=C\\C=C\\[C@H](C)[C@H](O)[C@@H](C)[C@@H](O)[C@@H](C)[C@H](OC(C)=O)[C@@H]1C"
  QUALITATIVE_LABEL: "inactive"
- STRUCTURE_AS_SMILES: "CC[C@H](NC(=O)c1cc(F)ccc1NS(=O)(=O)c1cccc2cccnc12)c1ccccc1"
  QUALITATIVE_LABEL: "inactive"

Enquiry: Look up the recorded call for `CN(C)C(=O)C1(N2CCCCC2)CCN(CC[C@@]2(c3ccc(Cl)c(Cl)c3)CN(C(=O)c3ccccc3)CCO2)CC1` in this test.
Return: active
